# Tested on: CCRIS mutagenicity, Ames/micronucleus/aberration tests
# Assay text: CCRIS mutagenicity studies
# Applied conditions: Test System: AMES SALMONELLA TYPHIMURIUM; Strain/Indicator: TA98; Metabolic Activation: NONE; Method: STANDARD PLATE
The source made the active and inactive calls. The rule behind the calls is not given here.
Outcome (select one): active, inactive

Look up the recorded call for `Cn1cnc2c(NO)ncnc21` in this test. inactive

Look up the recorded call for C1OC1C1CO1 (stereo unspecified) in this test. active

Look up the recorded call for `S=C([S-])NCCNC(=S)[S-].[Zn+2]` in this test. inactive

Look up the recorded call for `O=[N+]([O-])c1ccc(Cl)c(Cl)c1` in this test. inactive

Look up the recorded call for `CC(C)(C)NC[C@H](O)COc1nsnc1N1CCOCC1` in this test. inactive

Look up the recorded call for `CN1CCC(=C2c3ccccc3C=Cc3ccccc32)CC1` in this test. inactive

Look up the recorded call for `CCOP(=S)(OCC)SCCl` in this test. inactive

Look up the recorded call for `C=CCc1ccc(O)c(O)c1` in this test. inactive

Look up the recorded call for `c1ccc2c(c1)-c1cccc3cccc-2c13` in this test. inactive

Look up the recorded call for `O=[N+]([O-])C1=Cc2cc3cc4ccccc4cc3c3cccc1c23` in this test. active

Look up the recorded call for `O=C1C=CC(=O)N1c1ccc(Cc2ccc(N3C(=O)C=CC3=O)cc2)cc1` in this test. inactive

Look up the recorded call for `[N-]=[N+]=NC[C@@H]1O[C@H](O)[C@H](O)[C@@H](O)[C@@H]1O` in this test. inactive

Look up the recorded call for `Nc1ccc([N+](=O)[O-])cc1N` in this test. active

Look up the recorded call for `CCC/C=N/O` in this test. inactive

Look up the recorded call for `CN(C)CCCNc1c2ccccc2nc2ccccc12` in this test. inactive

Look up the recorded call for `O=[N+]([O-])c1c(-c2ccc(Cl)cc2)nc2sccn12` in this test. active

Look up the recorded call for `c1ccc([C@H]2N[C@H]2c2ccccc2)cc1` in this test. inactive

Look up the recorded call for `CO/N=C(\C(=O)N[C@@H]1C(=O)N2C(C(=O)[O-])=C(C[n+]3ccn4ncccc43)CS[C@H]12)c1nsc(N)n1` in this test. inactive

Look up the recorded call for `CN(C)c1ccc(Cc2ccc(N(C)C)cc2)cc1` in this test. inactive

Look up the recorded call for `CSC[C@H](NC(=O)COc1cccc2cnccc12)C(=O)N[C@@H](Cc1ccccc1)[C@H](O)C(=O)N1CSC[C@H]1C(=O)NC(C)(C)C` in this test. inactive

Look up the recorded call for `O=C(O)COc1cc(Cl)c(Cl)cc1Cl` in this test. inactive

---

# Test system: CCRIS mutagenicity, Ames/micronucleus/aberration tests
# Assay text: CCRIS mutagenicity studies
# Applied conditions: Test System: AMES SALMONELLA TYPHIMURIUM; Strain/Indicator: TA1535; Metabolic Activation: RAT LIVER S-9, PHENOBARBITAL AND BETA-NAPHTHOFLAVONE; Method: PREINCUBATION
The source made the active and inactive calls. The rule behind the calls is not given here.
Outcome (select one): active, inactive

Look up the recorded call for `O=C1CCCCCCCCCCCCCCO1` in this test. inactive

Look up the recorded call for `[O]=[W](=[O])([OH])[OH]` in this test. inactive

Look up the recorded call for `C=C(C)CCl` in this test. inactive

Look up the recorded call for `O=C(ON=C1C=CC(=NOC(=O)c2ccccc2)C=C1)c1ccccc1` in this test. inactive

Look up the recorded call for `O=C1c2ccccc2C(=O)c2c(O)ccc(O)c21` in this test. inactive

Look up the recorded call for `[Cl][Ti]([Cl])[Cl]` in this test. inactive

Look up the recorded call for `Cc1c(N=C=O)cccc1N=C=O` in this test. inactive

Look up the recorded call for ClCC1CO1 (centres undefined) in this test. active

Look up the recorded call for `CCCBr` in this test. inactive

Look up the recorded call for `C=C(C)C(=O)OCCCC` in this test. inactive

Look up the recorded call for `Brc1c(Br)c(Br)c(Oc2c(Br)c(Br)c(Br)c(Br)c2Br)c(Br)c1Br` in this test. inactive

Look up the recorded call for `O=[N+]([O-])c1cccc2c([N+](=O)[O-])cccc12` in this test. inactive

Look up the recorded call for `NN` in this test. active

Look up the recorded call for `O=C(O)[C@H](O)[C@@H](O)C(=O)O` in this test. inactive

Look up the recorded call for `C1COCCN1` in this test. inactive

Look up the recorded call for `O=NN1CN2CN(C1)CN(N=O)C2` in this test. inactive

Look up the recorded call for `c1ccc2cc3ccccc3cc2c1` in this test. inactive

Look up the recorded call for `CCCCCCCCCCCCCCCCCCN` in this test. inactive

Look up the recorded call for `C/C=C/C=O` in this test. inactive
